So I've got a bunch of compounds here, and I need their melting point values.

Returns the measured melting point for the input compound. Input: O=C(O)C1C2CCC(O2)C1C(=O)O (stereo unspecified)
144 °C

Can you check COc1cc2c(cc1OC)OC(C)(C)C=C2 next?
46 °C

Can you check CC1=NN(c2ccccc2)C(=O)/C1=C\c1ccccc1O next?
153 to 154 °C

Can you check Brc1ccc(Oc2ccc(Br)c(Br)c2Br)c(Br)c1 next?
119 to 121 °C

Can you check CC(C)CC1=CC(=Cc2ccc(-c3ccccc3)o2)C(=O)O1 next?
75 to 76 °C

Can you check N#CCc1ccc2c(c1)OCO2 next?
43 to 45 °C

Can you check NC(=S)Nc1cccc([N+](=O)[O-])c1 next?
189 to 190 °C

Can you check O=[N+]([O-])OC1COC2C(O)COC12 (stereo unspecified) next?
88 to 93 °C

Can you check COc1ccc(C#N)cn1 next?
94 to 95 °C

Can you check CCCC1C2C(=O)N(c3ccccc3)C(=O)C2ON1c1ccccc1 (stereo unspecified) next?
107 to 108 °C

Can you check Cc1ccc2[nH]cc(CC(N)C(=O)O)c2c1 (racemic) next?
280 to 282 °C

Can you check O=[N+]([O-])OC(CO)CO next?
54 °C

Can you check CC(=O)c1ccccc1NC=O next?
65 to 68 °C

Can you check CC(C)Cc1ccc(C(C)C(=O)NN)cc1 (stereo unspecified) next?
76 to 78 °C

Can you check N#Cc1ccc(-c2nccs2)cc1 next?
102 to 103 °C

Can you check CCOC(=O)C(=O)CC(=O)c1cccs1 next?
38 to 40 °C

Can you check CC(CO)C1CCC2C3CCC4=CC(=O)C=CC4(C)C3CCC12C (stereo unspecified) next?
178 to 184 °C

Can you check COC1(OC)C2C=C3OC(=O)C1C3(C)O2 (stereo unspecified) next?
199 to 201 °C

Can you check Cc1ccc(C)n1-c1cc([N+](=O)[O-])ccc1F next?
56 to 58 °C

Can you check OCCc1ccccc1C(F)(F)F next?
2 to 3 °C

Can you check CC(C)(C)OC(=O)N1CCN(c2ccc(I)cc2)CC1 next?
150 to 151 °C

Can you check C[C@]12CCC(O)CC1=CC[C@@H]1[C@@H]2CC[C@]2(C)C(O)CC[C@@]12C (stereo partly specified) next?
182 to 184 °C

Can you check CC(=O)C1=CCC2(C)C(CCC3C4CCC(=O)C4(C)CCC32)C1 (stereo unspecified) next?
152 to 153 °C

Can you check CCOC(=O)C1=C(N)Oc2ccc(Br)cc2C1C(C#N)C(=O)OCC (stereo unspecified) next?
105 to 108 °C

Can you check CCCC(C)(COC(N)=O)COC(N)=O next?
104 °C

Can you check O=C1C=C(N2CC2)C(=O)C(N2CC2)=C1N1CC1 next?
163 °C

* * *

So I've got a bunch of compounds here, and I need their melting point values.

Returns the measured melting point for the input compound. Input: Nc1cnc2ccccc2c1N
183 to 185 °C

Can you check O=C(c1ccc(Br)cc1)[C@H]1CCCC[C@H]1C(=O)O (relative stereo) next?
171 to 175 °C

Can you check O=Cc1cc2c(cc1Cl)OCO2 next?
116 °C

* * *

So I've got a bunch of molecules here, and I need their melting point values.
Express the result in °C but write the number alone.

Returns the measured melting point for the input molecule. Input: Clc1cc(Cl)c(OCC#CI)cc1Cl
114

Can you check CCCCCCCCCCCC(O)CC (centres undefined) next?
31.5

Can you check Cc1nc2ccccc2[nH]c(=O)c1=NNc1cc(-c2ccccc2)n[nH]1 next?
160

Can you check Cc1ccc(CC(=O)Nc2ccc(C)cc2)cc1 next?
163

Can you check O=c1oc2cc(O)ccc2s1 next?
160

Can you check CC1CCC(C(C)C)C(OC(=O)C(Cc2ccccc2)Cc2ccccc2)C1 (centres undefined) next?
43

Can you check C=CCN(CC=C)C(=O)CCl next?
25

Can you check COc1ccc(C2C(=O)c3ccccc3C2=O)cc1 next?
156

Can you check O=C(O)Cc1c(Cl)cccc1C(F)(F)F next?
151

Can you check O=C(OCC(COC(=O)c1cccnc1)(COC(=O)c1cccnc1)COC(=O)c1cccnc1)c1cccnc1 next?
162

Can you check Cc1nc2ccccc2n1CCc1nnc(S)n1N=Cc1ccccc1Cl next?
250

Can you check CCSc1nc(NC(C)C)nc(NC(C)C)n1 next?
105

Can you check CC(=O)OC1=c2ccc([N+](=O)[O-])cc2=NC1=c1ccc(=C2N=c3cc([N+](=O)[O-])ccc3=C2OC(C)=O)cc1 next?
280

Can you check Nc1cc(Br)cc2cc[nH]c12 next?
105

Can you check CCCCCCCCC(O)CCCCCCCC next?
61

Can you check Cc1cc(Br)cc(C)c1N next?
50

Can you check CCOC(=O)C1=C2c3ncccc3ON2C(Cl)C(Cl)C1Cl (centres undefined) next?
105

Can you check C=C(C)C=CC(=C)C next?
-9

Can you check COc1cc(NS(C)(=O)=O)ccc1Nc1c2ccccc2nc2ccccc12 next?
235

Can you check CCN(CC)CCOC(=O)c1ccc(N)cc1 next?
61

Can you check Sc1ccc(S)cc1 next?
97

Can you check COP(=O)(OC)OC(Br)C(Cl)(Cl)Br (centres undefined) next?
27

* * *

Test readout: melting point (°C)
Express the result in °C but write the number alone.

Returns the measured melting point for the input compound. Input: Cc1ccc(C(=O)C(F)(F)C(F)(F)F)cc1
4

Can you check O=C1NN(c2ccccc2)C(=O)C1=Cc1ccc(Cl)cc1 next?
322

Can you check O=C(Cl)OCC1c2ccccc2-c2ccccc21 next?
63

Can you check CCOP(=S)(S)OCC next?
-10

Can you check CCCOC(=O)c1ccccc1O next?
97

Can you check BrCc1cccc(-c2ccsc2)c1 next?
70

Can you check NC(Cc1ccc(Cl)cc1)C(=O)O (centres undefined) next?
260

Can you check CCC(=O)C(=O)O next?
33

Can you check Nc1cc([N+](=O)[O-])c(/C=C/c2ccccc2)cc1/C=C/c1ccccc1 next?
111

Can you check Nc1ccc([N+](=O)[O-])c2c1C(=O)c1c(Cl)ccc(Cl)c1C2=O next?
307

Can you check CC12CCC(C3(CCC(=O)O3)C1=O)C2(C)C (centres undefined) next?
207

Can you check COc1ccc2c(c1O)-c1c3c(cc4c1C(C2)N(C)CC4)OCO3 (centres undefined) next?
200

Can you check C1=CC2C3C=CC(C3)C2C1 (centres undefined) next?
33.6

Can you check CC(=O)Oc1cccc2c1C(=O)c1c(OC(C)=O)cc(C(=O)O)cc1C2=O next?
218

Can you check CC(=O)OCC(=O)C1(O)C(OC(C)=O)CC2C3CCC4=CC(=O)C=CC4(C)C3(F)C(O)CC21C (centres undefined) next?
235

Can you check COc1c(F)c(F)cc(C(=O)O)c1F next?
115

Can you check O=C1CCCCCCC1 next?
40.5

Can you check O=C=Nc1ccc(-c2ccco2)cc1 next?
66

Can you check O=Cc1c(F)cc(O)cc1F next?
181

Can you check O=[N+]([O-])CCc1ccccc1 next?
-23

Can you check CCN1C(=O)CCC1=O next?
26

Can you check Cc1ccc(-c2ccc(/C=C3\C=C(CC(C)C)OC3=O)o2)cc1 next?
78

Can you check C[C@@H]1N[C@H](C(=O)O)CC2c3ccccc3NC21 (some centres undefined) next?
286

Can you check C=C(Br)CC1(C(C)CC)C(=O)NC(=O)NC1=O (centres undefined) next?
132

* * *

Entry flag: Satisfied if melting point reaches 100 °C; Not satisfied if it does not.

Determine whether this compound has melting point no lower than 100 °C: N#Cc1c(Cl)ccc([N+](=O)[O-])c1Cl
Satisfied

Can you check CC(C)Oc1ccc(S(=O)(=O)Cl)cc1 next?
Not satisfied

Can you check NC(=O)c1cnccn1 next?
Satisfied

Can you check Nc1ncnc2c1ncn2C1OC(COP(=O)(O)OP(=O)(O)OP(=O)(O)O)C(O)C1O (stereo unspecified) next?
Satisfied

Can you check Nc1cc([N+](=O)[O-])ccc1Br next?
Satisfied

Can you check CCOC(=O)c1cc2ccccc2oc1=O next?
Not satisfied

Can you check CC(=O)Nc1ccc(C(=O)O)cc1[N+](=O)[O-] next?
Satisfied

Can you check CC1C=CCC1 (stereo unspecified) next?
Not satisfied

Can you check N[C@@H](CSCC(=O)O)C(=O)O next?
Satisfied

Can you check CC1=C(C(=O)O)N2C(=O)C(NC(=O)C(N)c3ccccc3)C2SC1 (stereo unspecified) next?
Satisfied

Can you check O=[N+]([O-])c1cc(Br)cc2c1NCC2 next?
Satisfied

Can you check Nc1nc(N)c(N=O)c(N)n1 next?
Satisfied

Can you check N#CCC(=O)c1cccs1 next?
Satisfied

Can you check O=C(O)c1cncc(-c2cccs2)c1 next?
Satisfied

Can you check O=[N+]([O-])c1ccc(S(F)(F)(F)(F)F)cc1 next?
Not satisfied

Can you check N#Cc1ccccc1CCl next?
Not satisfied

Can you check N[C@@H](Cc1ccc(F)cc1)C(=O)O next?
Satisfied

Can you check Cc1cc([N+](=O)[O-])ccc1O next?
Not satisfied

Can you check Clc1cc(Cl)c2c(c1)oc1c(Cl)cc(Cl)cc12 next?
Satisfied

Can you check COc1cc(CC(C)N)c(OC)cc1C (stereo unspecified) next?
Not satisfied
